This section presents sequences with their documented apparent KD of MS2 coat protein values.
system: MS2 coat protein; test: apparent KD of MS2 coat protein; designed switch direction (-1 OFF switch, 1 ON switch): 1; higher = weaker reporter binding; settings: input ligand: FMN 200 uM
Readout name: apparent KD of MS2 coat protein (nM)

[[record]]
macromolecule_sequence = "GCUGCAAGGGCAGGAUAUGGGUCCAGAGCGCAAGUGCGCCCUGGUACAUGAGGAUCACCCAUGUCCCAGAAGGGCCCAAGCAGC [Vetierribi] (Eterna round: R96, puzzle: Same State NG 2)"
measured_on = "MS2 coat protein"
readout_name = "apparent KD of MS2 coat protein"
test_result = 12.9

[[record]]
macromolecule_sequence = "GGUAGGUUACUACCAAUCACAUGAGGAUCACCCAUGUUUUGGGAGGAUAUGGUACCUAUUUGGUACCAGAAGGCCUUAUUAAUU [Fiskers NG3ss - 12] (Eterna round: R96, puzzle: Same State NG 3)"
measured_on = "MS2 coat protein"
readout_name = "apparent KD of MS2 coat protein"
test_result = 63.6

[[record]]
macromolecule_sequence = "AACAAUCUAUCUGAGGAUAUCAUGUCAAAGACAUGAGGAUCACCCAUGUACCAGGAAACUGGUUAUGAGAAGGCAGAUAGAUUGA [SS2: 1115] (Eterna round: R96, puzzle: Same State 2)"
measured_on = "MS2 coat protein"
readout_name = "apparent KD of MS2 coat protein"
test_result = 48.2

[[record]]
macromolecule_sequence = "UUGAAGAAUUAAGGAUAUUGAUUACAUAUGUUAAACAUGAGGAUCACCCAUGUGGGUUGCGGUAUCGAGAAGGUAAAUUACUAG [Mat - same State NG 2 - JL mod - D76] (Eterna round: R96, puzzle: Same State NG 2)"
measured_on = "MS2 coat protein"
readout_name = "apparent KD of MS2 coat protein"
test_result = 63.3

[[record]]
macromolecule_sequence = "AAAAUGGUAUGUUACAUGAGGAUCACCCAUGUACCGUCAUCUGAGGAUAUGGUGAUGUAGAAGAAUCAGAAGGCAGACAUUUAA [AK SSNG3-V2-25] (Eterna round: R96, puzzle: Same State NG 3)"
measured_on = "MS2 coat protein"
readout_name = "apparent KD of MS2 coat protein"
test_result = 17.3

